Data origin: a melting point compilation (Tetko et al.; mined from patent text by program, amines drawn as free bases though some values may be those of a salt)

{"columns": ["COMPOUND", "melting point"],
 "data": [
  ["Oc1ccc(CCNc2ncnc3scnc23)c(F)c1", "193 °C"],
  ["Nc1ccccc1C(=O)N1Cc2ccccc2C(=O)N1", "156 to 157 °C"],
  ["O=C(O)c1ccc(N2C(=O)CCC2(CO)CO)cc1", "195 to 197 °C"],
  ["COc1cc(C[NH+]([O-])C(=O)C(F)(F)F)ccn1 (stereo unspecified)", "176 to 178 °C"],
  ["CN1CCN(CCSc2nc3ccccc3[nH]2)CC1", "93 to 95 °C"],
  ["CCOC(=O)CCc1coc2c(O[Si](C)(C)C(C)(C)C)c3ccccc3c(C)c12", "92.4 to 93.5 °C"]
]}
